The reported measurements were obtained from patent US20150140169.

Target: T1, alpha-s1 casein from Bos taurus
T1 chain: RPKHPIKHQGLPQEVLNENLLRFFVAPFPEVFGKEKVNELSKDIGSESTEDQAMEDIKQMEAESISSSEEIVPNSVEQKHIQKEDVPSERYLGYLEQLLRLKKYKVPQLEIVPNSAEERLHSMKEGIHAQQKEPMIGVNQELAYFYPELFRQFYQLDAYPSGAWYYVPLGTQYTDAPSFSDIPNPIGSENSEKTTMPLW
quantity: αs1-I CN, 6 hours, 11° C. (Volume)
Report only the number, with the unit Volume understood.

For camel chymosin variant #157 (D290T) (protein) GKVAREPLTSYLDSQYFGKIYIGTPPQEFTVVFDTGSSDLWVPSIYCKSNVCKNHHRFDPRKSSTFRNLGKPLSIHYGTGSMEGFLGYDTVTVSNIVDPNQTVGLSTEQPGEVFTYSEFDGILGLAYPSLASEYSVPVFDNMMDRHLVARDLFSVYMDRNGQGSMLTLGAIDPSYYTGSLHWVPVTLQQYWQFTVDSVTINGVAVACVGGCQAILDTGTSVLFGPSSDILKIQMAIGATENRYGEFDVNCGNLRSMPTVVFEINGRDYPLSPSAYTSKDQGFCTSGFQGTNNSELWILGDVFIREYYSVFDRANNRVGLAKAI , what is its reported αs1-I CN, 6 hours, 11° C.?
1.76e+07
